# Test system: U2OS
# Assay comment: Multiplex assay against U2OS
# Type: toxicity, cell-based
# Experimental setup: human, 48 h, 1 µM, compound concentration 1 uM, replicate 2
Lab note: anything with Population Membrane Permeable-Phenotype (%) at or over 7% counts as met; the rest go in not met.

Use these answered entries as a reference point.
CCCn1c(=O)c2[nH]c(C34CC5CC(CC3C5)C4)nc2n(CCC)c1=O [ROLOFYLLINE] : met
Nc1nc2c(c(N3CCNCC3)n1)CCC1=C2[C@@H]2CCCC[C@@H]2O1 : not met
CC(=O)c1cc(-c2cc(C(=O)NC3CC3)ccc2C)c2ncccn12 : not met
Cc1cc2c(cc1N1C(=O)c3cccc4c(CCCO)ccc(c34)C1=O)n(C)c(=O)n2C : met
CCn1c(-c2nonc2N)nc2cnc(Oc3cccc(NC(=O)c4ccc(OCCN5CCOCC5)cc4)c3)cc21 [GSK-269962A] : met

Prompt line: Is Population Membrane Permeable-Phenotype (%) at least 7%? Consider `CC(C)N1CCC(C)(C)c2cc(C#Cc3ccc(C(=O)O)cc3)ccc21`
Response line: not met

Prompt line: Does Population Membrane Permeable-Phenotype (%) meet or surpass 7% for CCC(=O)O[C@]1(C(=O)SCF)[C@H](C)C[C@H]2[C@@H]3C[C@H](F)C4=CC(=O)C=C[C@]4(C)[C@@]3(F)[C@@H](O)C[C@@]21C [FLUTICASONE PROPIONATE] ?
Response line: met

Prompt line: Form field: Population Membrane Permeable-Phenotype (%) at least 7%? Entry: CCc1cc2c(cc1CC)CC(NC[C@H](O)c1ccc(O)c3[nH]c(=O)ccc13)C2 [INDACATEROL]
Response line: met

----------
Recorded Total Cell Count for the following compounds
# Tested on: HEK-293T
# Assay comment: Multiplex assay against HEK293T
# Type: toxicity, cell-based
# Experimental setup: human, 24 h, 1 µM, compound concentration 1 uM, replicate 2
Keep it simple and answer with nothing but the number.

CC(C)Oc1ccc(C(=O)N[C@H](CNC(=O)CN(C)C)Cc2ccc(-c3cn4cccc([C@H](C)O)c4n3)cc2)cc1Cl [GSK-923295A] : 1632
Nc1ccc(C(=O)Nc2cccc(-c3nc(N4CCOCC4)c4oc5ncccc5c4n3)c2)cn1 : 171
CCc1cc2c(cc1CC)CC(NC[C@H](O)c1ccc(O)c3[nH]c(=O)ccc13)C2 : 282

Now for another entry.
Prompt line: Please tell me: Total Cell Count of `Cl.Cl.Nc1ncnc2c1c(-c1cccc(OCc3ccccc3)c1)cn2[C@H]1C[C@@H](CN2CCC2)C1` , system HEK-293T?
Response line: 213

----------
# Test system: HEK-293T
# Assay comment: Incucyte cell viability with HEK293T; also: filed as whole numbers so only -1 and 0 and 1 occur
# Format: toxicity, cell-based
# Experimental setup: human, 18 h, 10 µM, compound concentration 10 uM, replicate number 1, timepoint 18 hours
Measured Growth Rate of individual entries
// return just the number, without any unit appended

Some entries whose results are on file:
CCCCc1nc(Cl)c(CO)n1Cc1ccc(-c2ccccc2-c2nn[nH]n2)cc1 [LOSARTAN] : 1
CCCc1c(-c2ccc(O)cc2)nn(-c2ccc(O)cc2)c1-c1ccc(O)cc1 [PROPYLPYRAZOLETRIOL] : 1
Cl.Cl.NC1(c2ccc(-c3nc4ccn5c(=O)[nH]nc5c4cc3-c3ccccc3)cc2)CCC1 : 0
CCc1cc2c(cc1CC)CC(NC[C@H](O)c1ccc(O)c3[nH]c(=O)ccc13)C2 [INDACATEROL] : 0
CC(C)NCC(O)c1ccc(N)c(C#N)c1 (stereo not drawn) [CIMATEROL] : 0

Prompt line: Please give the measured Growth Rate for this compound: N#CC1(c2ccccn2)CCN(Cc2cc(C(=O)N3CCCC3)c(=O)n3ccccc23)CC1 [MSD-M1PAM-NC]
Response line: 0

Prompt line: Which measured Growth Rate value corresponds to CCCn1c(=O)c2[nH]c(C34CC5CC(CC3C5)C4)nc2n(CCC)c1=O [ROLOFYLLINE] ?
Response line: 0

Prompt line: Which Growth Rate is reported for this compound? `COc1cc2c(Nc3ccc(NC(=O)c4ccccc4)cc3)ncnc2cc1OCCCN1CCOCC1`
Response line: 0

Prompt line: Given the entry `CCNC(=O)c1cc2c(N3CCOC[C@@H]3C)ccnc2[nH]1` , report its measured Growth Rate.
Response line: 0

Prompt line: Endpoint output: Growth Rate of `C[C@H](CO)Nc1nc(SCc2cccc(Cl)c2F)nc2[nH]c(=O)sc12` . Value?
Response line: 1

Prompt line: Name the reported Growth Rate value associated with the compound `Cc1cc(NC(=O)Nc2ccc(N(C)C)cc2)c2cc(F)cc(F)c2n1`
Response line: 0
